Ref: PubChem BioAssay (NCI)

Collected TGI values appear next to each entry.
test system: IGROV1 ovarian; assay: NCI tumour cell line growth inhibition, 48 h

{"columns": ["Compound", "Result Modifier", "TGI, µM"],
 "data": [
  ["N#C/C(=C/Sc1ccccc1)C(=O)O", "=", 37.2],
  ["Cc1cn2c(/C=N/N=C(N)N)c(-c3cccnc3)nc2s1", "=", 49.8],
  ["O=C1C2CN(Cc3ccccc3)CC1CN(CC1CC1)C2", ">", 100],
  ["CC(=O)O[C@H]1CCC2[C@@H]3CCC4Cc5nc6c(nc5C[C@]4(C)C3CC[C@@]21C)CC1CC[C@@H]2C(CC[C@@]3(C)C2CC[C@@H]3C(C)CCCC(C)C)[C@@]1(C)C6 (some centres not stated)", ">", 100],
  ["CCOC(=O)C(NCc1cccc(C(F)(F)F)c1)(NC(=O)CC)C(F)(F)F (configuration not stated)", ">", 100],
  ["CC1=C[P+](Cc2ccccc2)(c2ccccc2)CC1 (configuration not stated)", ">", 100],
  ["COc1cc(S(=O)(=O)Nc2nc(-c3ccc(N4C(=O)/C(=C/c5ccccc5[N+](=O)[O-])N=C4c4ccccc4)cc3)cs2)ccc1Cl", ">", 100],
  ["CCOC(=O)c1ccc(NC(=O)SCCC(=O)O)cc1", ">", 100],
  ["COc1cc(/C=C\\c2cccnc2)cc(OC)c1OC", ">", 100],
  ["COC(=O)/C=C/c1cn(C(C)=O)c2ccc(Br)cc12", ">", 100],
  ["O=c1c2cc([N+](=O)[O-])ccc2n2n1CCCC2", ">", 100],
  ["CC(=O)OCCOc1cc2c([nH]c3ccccc32)c(C)c2cccc1-2", "=", 4.84],
  ["CN1CCN(CCCCN2c3ccccc3Sc3cc(N=[N+]=[N-])ccc32)CC1", "=", 4.26],
  ["SC1CCCN(Cc2ccccc2)C1 (configuration not stated)", ">", 100],
  ["COc1ccc(CNc2nc3cc(N)cc(N)c3nc2-c2ccccc2)cc1", "=", 27.1],
  ["Nc1ncnc2c1ncn2[C@H]1CC[C@@H](NO)C1", ">", 100],
  ["c1ccc(CN=C(NCc2ccccc2)NCc2ccccc2)cc1", "=", 9.51],
  ["COc1ccc(/C(CC2OC(=O)c3ccccc32)=N\\NC(=O)C[N+](C)(C)C)cc1 (configuration not stated)", ">", 100],
  ["O=C(NN=C1CCCCC1)c1[nH]c2ccc(F)cc2c1-c1ccccc1", ">", 100],
  ["CC1(C)CCC(C)(C)c2c1ccc(O)c2Cc1c(O)ccc2c1C(C)(C)CCC2(C)C", "=", 3.68],
  ["NS(=O)(=O)c1ccc(Nc2c3ccccc3nc3c(C(=O)NCCO)cccc23)cc1", "=", 0.45],
  ["CC1=C([Te]c2ccc(O)cc2)C(=O)c2ccccc2C1=O", "=", 4.91]
]}

====

tested on: UO-31 renal; test: NCI tumour cell line growth inhibition, 48 h

{"columns": ["Compound", "System", "GI50"],
 "data": [
  ["O=C1c2ccccc2-c2c1c1c(O)cccc1n2-c1ccccc1", "UO-31 renal", "> 100 µM"],
  ["O=C(NN=C1CCCCC1)c1[nH]c2ccc(F)cc2c1-c1ccccc1", "UO-31 renal", "42.6 µM"],
  ["CC(=O)[C@@]1(O)[C@H](C)C[C@H]2[C@@H]3C=C(C)C4=Cc5c(cnn5-c5ccccc5)C[C@]4(C)[C@H]3[C@@H](O)C[C@@]21C", "UO-31 renal", "2.08 µM"],
  ["COC(=O)/C=C/c1cn(C(C)=O)c2ccc(Br)cc12", "UO-31 renal", "8.73 µM"],
  ["C/C(=C\\COc1c2c(cc3c1CCO3)OC1(C=C2)OC(CC/C(C)=C/COc2c3ccoc3cc3oc(=O)ccc23)C(C)(C)O1)CCC(O)C(C)(C)O (stereo not given)", "UO-31 renal", "25.7 µM"]
]}

====

Collected TGI values appear next to each entry.
tested on: KM12 colon; assay: NCI tumour cell line growth inhibition, 48 h
Measured Attribute: TGI

{"columns": ["Molecule", "Measured Attribute", "Recorded Result"],
 "data": [
  ["O=C1OCc2cc3cc4c(cc3c(-c3ccc5c(c3)OCO5)c21)OCO4 (tested in a mixture with another compound)", "TGI", "> 100 µM"],
  ["C1=NCCNCCNCCN=Cc2ccccc2OCc2cccc(n2)COc2ccccc21", "TGI", "> 100 µM"],
  ["O=C(NCc1ccco1)c1ccc(NC2=C(Cl)C(=O)N(Cc3ccccc3)C2=O)cc1", "TGI", "36.2 µM"],
  ["COC(=O)/C=C(/OC)[C@H](C)[C@H](/C=C/c1csc(-c2csc(C(C)C)n2)n1)OC", "TGI", "> 100 µM"],
  ["CN(C)Cc1cc(C=O)cc(CN(C)C)c1O", "TGI", "> 100 µM"],
  ["CC[C@@H]1C[C@H]2CC3c4[nH]c5ccc(O)cc5c4CCN(C2)C31", "TGI", "> 100 µM"],
  ["C=C1C(=O)OC2CC1CCC1(C)OC1CCC(C)=CCCC2(C)O (stereo not given)", "TGI", "12.9 µM"],
  ["COc1cc2c(cc1OC)C(=O)Cc1ccc(OC)c(OC)c1CN(C)CC2", "TGI", "> 100 µM"],
  ["CN(CC(=O)O)c1ncc2c(n1)-c1ccccc1OC2", "TGI", "> 100 µM"],
  ["COc1ccc(-c2cc(-c3ccc(O)cc3)nc3n[nH]c(N)c23)cc1", "TGI", "40.7 µM"]
]}

====

Collected TGI values appear next to each entry.
system: 786-0 renal; assay: NCI tumour cell line growth inhibition, 48 h

{"columns": ["Compound", "TGI"],
 "data": [
  ["O=C(/C=C/c1ccccc1)N1CCCCC1", "> 100 µM"],
  ["O=C(NCc1ccncc1)C12CC3CC(C1)CC(c1ccc(Cl)cc1)(C3)C2", "25.8 µM"],
  ["COc1cc(/C=C/C(=O)c2ccc(NC(=O)CSc3nnc(-c4cc(OC)c(OC)c(OC)c4)n3-c3ccccc3)cc2)cc(OC)c1OC", "4.63 µM"],
  ["CC(=O)OCC(OC(C)=O)C(OC(C)=O)C(OC(C)=O)C(C=NN(C(C)=O)S(=O)(=O)c1ccc(/C=C2\\NC(=O)NC2=O)cc1)OC(C)=O (stereo not given)", "> 100 µM"],
  ["O=S(=O)(Nc1cc(Cl)ccc1Cl)c1ccc(-c2cnc(C3CC3)o2)cc1", "20.9 µM"]
]}

====

system: SK-MEL-2 melanoma; experiment: NCI tumour cell line growth inhibition, 48 h
Measured Attribute: TGI

{"columns": ["Compound", "Recorded Result"],
 "data": [
  ["Cc1cn2c(/C=N/N=C(N)N)c(-c3cccnc3)nc2s1", "45.5 µM"],
  ["COCn1c(C)c(C)c2c(=O)oc(N(C)C)nc21", "> 100 µM"],
  ["CCc1ccc2c(c1)N(CCO)C1=C(C(=O)OC1)C2c1cccc(Cl)c1 (configuration not stated)", "16.2 µM"],
  ["Clc1ccc(-c2ccc(-c3nn4c(CNc5ccccc5)nnc4s3)o2)c(Cl)c1", "> 100 µM"],
  ["O=C1C2CN(Cc3ccccc3)CC1CN(CC1CC1)C2", "> 100 µM"],
  ["CSc1ncnc2c1ncn2C1OC(CO)C(O)OC1O (configuration not stated)", "18.9 µM"],
  ["Cc1ccc2[nH]c3c(c2c1)C1CCC(C(C)(C)C)CC1C1C(=O)N(c2ccc4c(c2)OCO4)C(=O)C31 (configuration not stated)", "19.3 µM"],
  ["O=c1[nH]cnc2c1CCCN2", "> 100 µM"],
  ["SC1CCCN(Cc2ccccc2)C1 (configuration not stated)", "> 100 µM"],
  ["NCCC(=O)N[C@@H](Cc1cc(O)c(O)c(SCC(NC(=O)CC[C@H](N)C(=O)O)C(=O)NCC(=O)O)c1)C(=O)O (some centres not stated)", "> 50 µM"],
  ["COc1ccc2[nH]cc(CCNC(=O)[C@](O)(Cc3cn(C)c4ccccc34)[C@@]3(O)OCC(O)C3O)c2c1 (some centres not stated)", "> 100 µM"],
  ["COc1ccc(OC(C(=O)O)c2ccccc2)c2c1CCCC2=O (configuration not stated)", "> 100 µM"],
  ["CN(C)/C=N/NC(=O)/C(C#N)=C/N(C)C", "> 100 µM"],
  ["CC(=O)NNC(=O)C1CCCCN1 (configuration not stated)", "> 100 µM"],
  ["O=C(Nc1ccc(Cl)c(Cl)c1)N1N=C2c3ccccc3CCC2C1c1ccc(Cl)cc1 (configuration not stated)", "> 100 µM"],
  ["O=c1c2c3c(sc2nc(N/N=C/c2ccc(Br)cc2)n1Cc1ccccc1)CCCC3", "> 100 µM"],
  ["CC1(C)CCC(C)(C)c2c1ccc(O)c2Cc1c(O)ccc2c1C(C)(C)CCC2(C)C", "3.19 µM"],
  ["CN1CC(CNC(=O)OCc2ccccc2)CC2c3cccc4c3c(cn4C)CC21 (configuration not stated)", "3.45 µM"],
  ["O=C1CC(O)(c2ccccc2)C(c2ccccc2)=C1c1ccccc1 (configuration not stated)", "> 100 µM"],
  ["COc1cc(-c2nn(-c3cccc(NC(=O)c4ccc(N5CCOCC5)c(C(F)(F)F)c4)c3)cc2-c2ccncc2)ccc1Cl", "2.46 µM"],
  ["O=C(NN=C1CCCCC1)c1[nH]c2ccc(F)cc2c1-c1ccccc1", "> 100 µM"],
  ["COC1CC(NC(=O)C(F)(F)F)C(OC(C)=O)C(C)O1 (configuration not stated)", "> 100 µM"]
]}
